- system: T1, IL-3Rα, CD123 (interleukin 3 receptor subunit alpha) as expressed on CD123-positive human cancer cell lines … (human, UniProt P26951 20-378)
- T1 construct: Target of the flow cytometry on the human cell line MOLM-13 (CD123-positive); NCBI Gene ID 3563; also called IL3RA; IL3R-alpha
- T1 sequence: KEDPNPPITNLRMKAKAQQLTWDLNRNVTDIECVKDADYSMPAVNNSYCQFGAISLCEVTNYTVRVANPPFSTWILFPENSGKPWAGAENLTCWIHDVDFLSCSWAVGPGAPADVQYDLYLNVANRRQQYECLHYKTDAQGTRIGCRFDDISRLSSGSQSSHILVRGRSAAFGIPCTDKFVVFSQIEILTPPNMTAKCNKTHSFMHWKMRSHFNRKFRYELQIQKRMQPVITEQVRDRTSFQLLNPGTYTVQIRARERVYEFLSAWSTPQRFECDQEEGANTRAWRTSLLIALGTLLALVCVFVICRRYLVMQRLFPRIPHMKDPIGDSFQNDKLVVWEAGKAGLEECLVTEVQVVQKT
- method.description: flow cytometry on MOLM-13 cells, anti-kappa-FITC secondary antibody
This listing pairs binders with measured Efficacy [%] (compared to maximal binding).
Reply numerically in %, unit not repeated.

Here are 5 binders together with their reported answers.
- TPP-6013 (antibody, human IgG1, kappa, V domains shown, Chimeric antibody: murine 12F1 variable domains with human IgG1 kappa constant regions; also called antiCD123-12F1-hIgG1Kappa; chimeric variant of 12F1) VH: QVQLQESGPGLVKPSQSLSLTCSVTDYSITSGYYWNWIRQFPGNKLEWMGYISYDGSNNYNPSLKNRISITRDTSKNQFFLKLSSVTTEDTATYYCSRGEGFYFDSWGQGTTLTVSS VL: DIMMSQSPSSLAVSVGEKFTMTCKSSQSLFFGSTQKNYLAWYQQKPGQSPKLLIYWASTRESGVPDRFTGSGSGTDFTLAISSVMPEDLAVYYCQQYYNYPWTFGGGTKLEIKR: 100
- TPP-8988 (antibody, human IgG1, kappa, V domains shown, Humanized variant of 12F1 (IGKV3-20 / IGHV3-66 frameworks), human IgG1 kappa) VH: EVQLLESGGGLVQPGGSLRLSCAVSDYSITSGYYWNWIRQAPGKKLEWMGYISYDGSNNYNPSLKNGRITISRDTSKNTFYLQMNSLRAEDTAVYYCARGEGFYFDSWGQGTLVTVSS VL: EIVLTQSPGTLSLSPGERATLSCKSSQSLFFGSTQKNYLAWYQQKPGQAPRLLIYWASTRESGIPDRFSGSGSGTDFTLTISRLEPEDFAVYYCQQYYNYPWTFGQGTKLEIKR: 100
- TPP-8987 (antibody, human IgG1, kappa, V domains shown, Humanized and germlined variant of 7G3, human IgG1 kappa) VH: QVQLVQSGAEVKKPGSSVKVSCKASGGTFSDYYMKWVRQAPGQGLEWMGDIIPSNGATFYNQKFKGQVTITADESTSTAYMELSSLRSEDTAVYYCARSHLLRASWFAYWGQGTLVTVSS VL: DIVMTQSPDSLAVSLGERATINCESSQSVLNSGNQKNYLTWYQQKPGQPPKLLIYWASTRESGVPDRFSGSGSGTDFTLTISSLQAEDVAVYYCQNDYSYPYTFGQGTKLEIKR: 100
- TPP-9104 (antibody, human IgG1, kappa, V domains shown) VH: EVQLLESGGGLVQPGGSLRLSCAVSDYSITSNYYWNWIRQAPGKKLEWMGYISYDGSNNYNPSLKNGRITISRDTSKNTFYLQMNSLRAEDTAVYYCARGEGFYFDSWGQGTLVTVSS VL: EIVLTQSPGTLSLSPGERATLSCKSSQSLFFGSTQKNYLAWYQQKPGQAPRLLIYWASTRESGIPDRFSGSGSGTDFTLTISRLEPEDFAVYYCQQYYNYPWTFGQGTKLEIKR: 83
- TPP-9075 (antibody, human IgG1, kappa, V domains shown) VH: EVQLLESGGGLVQPGGSLRLSCAVSDYSITSGYYSNWIRQAPGKKLEWMGYISYDGSNNYNPSLKNGRITISRDTSKNTFYLQMNSLRAEDTAVYYCARGEGFYFDSWGQGTLVTVSS VL: EIVLTQSPGTLSLSPGERATLSCKSSQSLFFGSTQKNYLAWYQQKPGQAPRLLIYWASTRESGIPDRFSGSGSGTDFTLTISRLEPEDFAVYYCQQYYNYPWTFGQGTKLEIKR: 100

Query :: Form field: reported Efficacy [%] (compared to maximal binding) of TPP-8617 (antibody, human IgG1, kappa, V domains shown, Humanized 12F1 graft on IGKV4-1 / IGHV5-51; also called Hum-TPP6013-17) VH: EVQLVQSGAEVKKPGESLKISCKGSDYSITSGYYWNWVRQMPGKGLEWMGYISYDGSNNYNPSLKNGQVTISADKSISTAYLQWSSLKASDTAMYYCSRGEGFYFDSWGQGTLVTVSS VL: DIMMSQSPSSLAVSVGEKFTMTCKSSQSLFFGSTQKNYLAWYQQKPGQSPKLLIYWASTRESGVPDRFTGSGSGTDFTLAISSVMPEDLAVYYCQQYYNYPWTFGGGTKLEIKR
Result :: 100

Query :: Form field: reported Efficacy [%] (compared to maximal binding) of TPP-9130 (antibody, human IgG1, kappa, V domains shown) VH: EVQLLESGGGLVQPGGSLRLSCAVSDYSITSGYYWNWIRQAPGKKLEWMGYISYDGSNNYNPSLKNGRITISRDTSKNTFYLQMNSLRAEDTAVYYCARGEGFYFDSWGQGTLVTVSS VL: EIVLTQSPGTLSLSPGERATLSCKSSQSLFFGSTQKNYLAWYQQKPGQAPRLLIYGASSRATGIPDRFSGSGSGTDFTLTISRLEPEDFAVYYCQQYYNYPWTFGQGTKLEIKR
Result :: 100

Query :: Form field: reported Efficacy [%] (compared to maximal binding) of TPP-8695 (antibody, human IgG1, kappa, V domains shown, also called Variant4-hIgG1kappa) VH: QVQLVQSGAEVKKPGSSVKVSCKASGGTFSDYYMKWVRQAPGQGLEWMGDIIPSNGATFYNQKFKGQVTITADESTSTAYMELSSLRSEDTAVYYCARSHLLRASWFAYWGQGTLVTVSS VL: DIVMTQSPDSLAVSLGERATINCESSQSLLNSGNQKNYLTWYQQKPGQPPKLLIYWASTRESGVPDRFSGSGSGTDFTLTISSLQAEDVAVYYCQNDYSYPYTFGQGTKLEIKR
Result :: 36

Query :: Form field: reported Efficacy [%] (compared to maximal binding) of TPP-9476 (antibody, human IgG1, kappa, V domains shown, Humanized and germlined variant of 7G3, human IgG1 kappa) VH: QVQLVQSGAEVKKPGSSVKVSCKASGGTFSDYYMKWVRQAPGQGLEWMGDIIPSNGATFYNQKFKGRVTITADESTSTAYMELSSLRSEDTAVYYCARSHLLRASWFAYWGQGTLVTVSS VL: DIVMTQSPDSLAVSLGERATINCESSQSVLNSGNQKNYLTWYQQKPGQPPKLLIYWASTRESGVPDRFSGSGSGTDFTLTISSLQAEDVAVYYCQNDYSYPYTFGQGTKLEIKR
Result :: 100

Query :: Form field: reported Efficacy [%] (compared to maximal binding) of TPP-5969 (antibody, human IgG1, kappa, V domains shown, Humanized version of murine 7G3, human IgG1 kappa; also called HU7G3-4-hIgG1Kappa) VH: QVQLVQSGAEVKKPGSSVKVSCKASGGTFSDYYMKWVRQAPGQGLEWMGDIIPSNGATFYAQKFQGRVTITADESTSTAYMELSSLRSEDTAVYYCARSHLLRASWFAYWGQGTLVTVSS VL: DIVMTQSPDSLAVSLGERATINCESSQSLLNSGNQKNYLTWYQQKPGQPPKLLIYWASTRESGVPDRFSGSGSGTDFTLTISSLQAEDVAVYYCQNDYSYPYTFGQGTKLEIKR
Result :: 34
